Sourced from patent US20210238260

List of KM values.
Measurement Target: Factor X (FX), P00742
Sequence (P00742 whole entry, looked up): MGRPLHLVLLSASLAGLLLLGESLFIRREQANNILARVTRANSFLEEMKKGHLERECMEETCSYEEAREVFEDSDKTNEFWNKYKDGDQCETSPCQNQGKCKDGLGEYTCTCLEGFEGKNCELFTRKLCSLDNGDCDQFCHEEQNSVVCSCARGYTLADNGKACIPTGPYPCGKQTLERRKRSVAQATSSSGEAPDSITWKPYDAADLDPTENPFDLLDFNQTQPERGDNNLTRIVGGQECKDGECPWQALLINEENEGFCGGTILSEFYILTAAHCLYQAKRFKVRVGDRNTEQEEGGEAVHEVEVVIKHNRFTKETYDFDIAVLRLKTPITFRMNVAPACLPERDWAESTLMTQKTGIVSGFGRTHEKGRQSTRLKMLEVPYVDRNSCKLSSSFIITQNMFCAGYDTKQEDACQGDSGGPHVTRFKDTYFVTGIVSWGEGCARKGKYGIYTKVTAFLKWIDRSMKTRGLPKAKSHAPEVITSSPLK
Measure: KM

[[record]]
protein = "FIXa-Y155F/R338E/T343R/R403E/E410S (protein) chain 1: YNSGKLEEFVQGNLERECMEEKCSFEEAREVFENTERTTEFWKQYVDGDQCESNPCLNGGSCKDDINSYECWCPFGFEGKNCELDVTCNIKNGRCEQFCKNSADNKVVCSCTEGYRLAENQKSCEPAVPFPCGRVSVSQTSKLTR chain 2: VVGGEDAKPGQFPWQVVLNGKVDAFCGGSIVNEKWIVTAAHCVETGVKITVVAGEHNIEETEHTEQKRNVIRIIPHHNYNAAINKYNHDIALLELDEPLVLNSYVTPICIADKEYTNIFLKFGSGYVSGWGRVFHKGRSALVLQYLRVPLVDRATCLESTKFRIYNNMFCAGFHEGGRDSCQGDSGGPHVTEVEGTSFLTGIISWGEECAMKGKYGIYTKVSEYVNWIKSKTKLT"
measure = "KM"
value_observed = "0.0239 µM"

[[record]]
protein = "FIXa D104N/K106S/R318Y/R338E/E410N (protein) chain 1: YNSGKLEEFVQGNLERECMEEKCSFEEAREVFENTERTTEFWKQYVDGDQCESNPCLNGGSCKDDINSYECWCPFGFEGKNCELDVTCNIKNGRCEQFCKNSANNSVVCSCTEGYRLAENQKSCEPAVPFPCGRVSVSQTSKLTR chain 2: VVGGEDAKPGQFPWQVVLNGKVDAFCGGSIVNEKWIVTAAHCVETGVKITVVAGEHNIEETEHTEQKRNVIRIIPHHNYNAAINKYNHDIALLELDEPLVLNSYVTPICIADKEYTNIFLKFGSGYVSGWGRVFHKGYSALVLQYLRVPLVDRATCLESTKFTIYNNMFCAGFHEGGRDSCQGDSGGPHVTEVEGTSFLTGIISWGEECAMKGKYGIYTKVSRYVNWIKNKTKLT"
measure = "KM"
value_observed = "0.0189 µM"

